# assayedSystem: T1, IRF4 DBD K123R (Homo sapiens, UniProt Q15306 20-132, K123R)
# T1 sequence: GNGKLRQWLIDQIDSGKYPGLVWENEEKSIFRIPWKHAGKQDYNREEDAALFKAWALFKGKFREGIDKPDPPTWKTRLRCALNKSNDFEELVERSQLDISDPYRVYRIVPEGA
# assayDetails: SPR steady state; FP: PBS + 0.05% Tween20, 5 nM DNA, 1 h, room temperature; SPR: Biacore S200, SA chip, protein 0.1-4500 nM, running buffer not given in material; errors are SD
# conditions: protein: recombinant; tags: N-terminal His8-linker-His8-TEV, cleaved; label: 3' biotin; hairpin, TTTT loop
measureName: Kd

The binder listed as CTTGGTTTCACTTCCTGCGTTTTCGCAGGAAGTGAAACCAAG (structured_DNA) [IRE hairpin (biotin)] shows Kd equal to 491 nM
